Cited source for all entries: ChEMBL document CHEMBL3351294

Molecular target: N-lysine methyltransferase KMT5A (Homo sapiens)
Sequence (Q9NQR1 whole entry): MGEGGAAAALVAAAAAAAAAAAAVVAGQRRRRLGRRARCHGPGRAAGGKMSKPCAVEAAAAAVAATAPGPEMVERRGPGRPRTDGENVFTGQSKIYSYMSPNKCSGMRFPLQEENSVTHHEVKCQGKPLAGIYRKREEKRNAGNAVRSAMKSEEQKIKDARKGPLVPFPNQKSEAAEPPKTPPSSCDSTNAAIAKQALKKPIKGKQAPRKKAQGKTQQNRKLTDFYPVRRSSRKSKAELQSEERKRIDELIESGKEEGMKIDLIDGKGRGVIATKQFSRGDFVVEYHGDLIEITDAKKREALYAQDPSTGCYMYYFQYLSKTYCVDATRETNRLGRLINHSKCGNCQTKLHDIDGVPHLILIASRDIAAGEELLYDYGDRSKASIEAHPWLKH
quantity: IC50

// known answers, use as guide
# smilesData, target, quantity, observedResult
measured = [
    ("COc1cc2nc(N3CCCC3)nc(N(C)CCCCCN3CCCC3)c2cc1OC", "N-lysine methyltransferase KMT5A (Homo sapiens)", "IC50", "> 250 µM"),
    ("COc1cc2nc(NC3CCCCC3)nc(NCCCCCN3CCCC3)c2cc1OC", "N-lysine methyltransferase KMT5A (Homo sapiens)", "IC50", "> 250 µM"),
]

Item under review: COc1cc2nc(NC3CCCC3)nc(NCCCCCN3CCCC3)c2cc1OC . Reported IC50?
> 250 µM

* * *

Target: Histone-lysine N-methyltransferase KMT5B (Homo sapiens)
Sequence (Q4FZB7 whole entry): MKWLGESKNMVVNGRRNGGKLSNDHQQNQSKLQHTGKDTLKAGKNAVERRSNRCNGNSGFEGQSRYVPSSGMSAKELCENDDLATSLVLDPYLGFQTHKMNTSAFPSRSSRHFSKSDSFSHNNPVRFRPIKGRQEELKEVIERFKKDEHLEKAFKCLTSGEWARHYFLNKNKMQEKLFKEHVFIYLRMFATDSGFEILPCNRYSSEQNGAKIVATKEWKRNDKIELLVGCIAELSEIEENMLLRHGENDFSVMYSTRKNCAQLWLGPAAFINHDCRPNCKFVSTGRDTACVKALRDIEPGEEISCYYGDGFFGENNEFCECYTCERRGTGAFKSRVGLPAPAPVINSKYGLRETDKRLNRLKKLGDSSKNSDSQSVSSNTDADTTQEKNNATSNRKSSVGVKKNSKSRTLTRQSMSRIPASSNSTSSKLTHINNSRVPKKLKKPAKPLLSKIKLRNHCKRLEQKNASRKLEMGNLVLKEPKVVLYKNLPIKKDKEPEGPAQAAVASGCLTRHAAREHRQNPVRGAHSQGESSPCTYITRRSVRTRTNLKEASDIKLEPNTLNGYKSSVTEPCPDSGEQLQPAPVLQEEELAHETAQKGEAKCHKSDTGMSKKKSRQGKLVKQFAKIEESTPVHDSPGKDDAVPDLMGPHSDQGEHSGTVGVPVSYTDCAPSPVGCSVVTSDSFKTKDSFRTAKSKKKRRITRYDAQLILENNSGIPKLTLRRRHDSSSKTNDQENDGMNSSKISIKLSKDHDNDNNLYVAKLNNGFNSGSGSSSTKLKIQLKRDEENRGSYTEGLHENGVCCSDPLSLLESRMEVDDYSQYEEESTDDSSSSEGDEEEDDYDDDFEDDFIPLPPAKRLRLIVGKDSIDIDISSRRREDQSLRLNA
pIC50: −log10 of the molar value.
quantity: pIC50

Item under review: COc1cc2nc(N3CCCC3)nc(NCCCCCN3CCCC3)c2cc1OC . Reported pIC50?
< 4.00

* * *

Biological target: Histone-lysine N-methyltransferase EHMT1 (Homo sapiens)
Sequence (Q9H9B1 whole entry): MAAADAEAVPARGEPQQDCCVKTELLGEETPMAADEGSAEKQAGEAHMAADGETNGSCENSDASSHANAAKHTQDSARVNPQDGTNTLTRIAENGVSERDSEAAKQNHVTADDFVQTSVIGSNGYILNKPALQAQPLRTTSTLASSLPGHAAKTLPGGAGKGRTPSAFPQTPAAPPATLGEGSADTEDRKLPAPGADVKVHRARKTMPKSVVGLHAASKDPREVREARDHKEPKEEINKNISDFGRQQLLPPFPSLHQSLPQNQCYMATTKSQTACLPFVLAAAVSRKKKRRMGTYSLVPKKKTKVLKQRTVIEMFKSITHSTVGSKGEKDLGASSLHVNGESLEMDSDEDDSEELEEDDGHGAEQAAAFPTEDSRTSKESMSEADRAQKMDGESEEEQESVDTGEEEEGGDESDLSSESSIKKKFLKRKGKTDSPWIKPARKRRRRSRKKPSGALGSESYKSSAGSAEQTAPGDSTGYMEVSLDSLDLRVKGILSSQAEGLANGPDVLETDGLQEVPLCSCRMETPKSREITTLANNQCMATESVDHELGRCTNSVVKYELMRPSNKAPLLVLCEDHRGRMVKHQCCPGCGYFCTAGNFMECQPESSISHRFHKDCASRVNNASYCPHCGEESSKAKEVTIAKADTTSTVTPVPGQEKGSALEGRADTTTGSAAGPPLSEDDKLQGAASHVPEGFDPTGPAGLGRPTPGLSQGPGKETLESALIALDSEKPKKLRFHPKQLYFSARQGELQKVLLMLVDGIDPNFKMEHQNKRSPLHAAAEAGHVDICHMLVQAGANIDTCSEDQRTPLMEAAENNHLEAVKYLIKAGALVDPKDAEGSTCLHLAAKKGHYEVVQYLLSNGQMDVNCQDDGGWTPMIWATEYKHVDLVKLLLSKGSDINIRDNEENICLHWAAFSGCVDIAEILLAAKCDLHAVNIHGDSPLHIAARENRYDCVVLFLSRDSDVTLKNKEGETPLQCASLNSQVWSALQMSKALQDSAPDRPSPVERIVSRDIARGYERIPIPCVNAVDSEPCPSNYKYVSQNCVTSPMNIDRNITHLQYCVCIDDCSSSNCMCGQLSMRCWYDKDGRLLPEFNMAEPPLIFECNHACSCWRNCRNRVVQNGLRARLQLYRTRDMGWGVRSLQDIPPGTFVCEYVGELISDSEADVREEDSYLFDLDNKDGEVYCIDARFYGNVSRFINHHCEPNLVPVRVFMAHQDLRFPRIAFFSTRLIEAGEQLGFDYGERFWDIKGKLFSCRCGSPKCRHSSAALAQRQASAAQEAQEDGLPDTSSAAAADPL
pIC50: −log10 of the molar value.
quantity: pIC50

Item under review: COc1cc2nc(N3CCCC3)nc(NCCCCCN3CCCC3)c2cc1OC . Reported pIC50?
< 4.00

* * *

Target: Histone-lysine N-methyltransferase KMT5C (Homo sapiens)
Sequence (Q86Y97 whole entry): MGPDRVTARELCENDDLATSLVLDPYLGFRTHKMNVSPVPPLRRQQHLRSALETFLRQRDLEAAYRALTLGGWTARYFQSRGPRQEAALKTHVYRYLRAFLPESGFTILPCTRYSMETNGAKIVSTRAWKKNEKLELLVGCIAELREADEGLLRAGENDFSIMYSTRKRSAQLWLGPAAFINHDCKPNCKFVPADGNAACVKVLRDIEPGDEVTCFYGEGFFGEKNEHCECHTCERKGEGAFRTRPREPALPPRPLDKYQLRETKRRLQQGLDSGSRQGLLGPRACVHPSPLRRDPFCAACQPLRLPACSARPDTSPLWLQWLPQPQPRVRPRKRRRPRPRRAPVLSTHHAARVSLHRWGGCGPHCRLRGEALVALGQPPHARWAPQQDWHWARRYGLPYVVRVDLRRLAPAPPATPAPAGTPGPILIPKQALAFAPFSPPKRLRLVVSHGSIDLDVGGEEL
quantity: IC50

Item under review: COc1cc2nc(N3CCCC3)nc(NCCCCCN3CCCC3)c2cc1OC . Reported IC50?
> 100 µM
